meta.source: patent US12037324B2

- System tested: hAT1R (Homo sapiens, UniProt P30556)
- Protocol text: BRET β-arrestin2 biosensor assay, higher receptor expression (hAT1R 5 ng/well), HEK293 cells
- Assay type: cell-based
Criterion: BRET β-Arrestin2 High AT1R Expression Ymax (%) meeting or surpassing 80%. Met: rule met. Not met: rule not met.

INSERT INTO assay_data (compound, cat) VALUES
  ('CCCCc1nc(Cl)c(C(=O)O)n1Cc1ccc(-c2cc(-c3ccc(C(=O)N(C)C)cc3)ccc2-c2nn[nH]n2)cc1', 'rule met'),
  ('CCCCC1=NC2(CCOC2)C(=O)N1Cc1ccc(-c2cc(-c3ccccc3F)ccc2-c2nnn[nH]2)cc1 (single isomer, unassigned) [Example 148]', 'rule not met'),
  ('CCCCc1nc(Cl)c(C(=O)O)n1Cc1ccc(-c2cc(-c3ccccc3)ccc2-c2noc(=O)[nH]2)cc1', 'rule met'),
  ('CCCCc1nc(Cl)c(C(=O)O)n1Cc1ccc(-c2cc(-c3cn(C(C)C)nc3C(F)(F)F)ccc2-c2nn[nH]n2)cc1', 'rule met'),
  ('CCCCc1ncc(C(=O)N2CCCCC2)n1Cc1ccc(-c2cc(-c3ccccc3)ccc2-c2nn[nH]n2)cc1', 'rule not met'),
  ('CCCCC1=NC2(CCCC2)C(=O)N1Cc1ccc(-c2cc(-c3cccc(C(F)(F)F)n3)ccc2-c2nn[nH]n2)cc1', 'rule met'),
  ('CCCCC1=NC2(CCCC2)C(=O)N1Cc1ccc(-c2cc(-c3ccsn3)ccc2-c2nn[nH]n2)cc1', 'rule not met'),
  ('CCc1nc2c(C)cc(C)nc2n1Cc1ccc(-c2cc(OCc3ccccc3)ccc2-c2nnn[nH]2)cc1', 'rule not met'),
  ('CCOc1nc2cccc(C(=O)O)c2n1Cc1ccc(-c2cc(-c3cccnc3OC)ccc2-c2noc(=O)[nH]2)cc1', 'rule met'),
  ('CCCCC1=NC2(CCOC2)C(=O)N1Cc1ccc(-c2cc(-c3ccccc3)ccc2-c2nnn[nH]2)cc1 (single isomer, unassigned) [Example 146]', 'rule met'),
  ('CCc1nc2c(C)cc(C)nc2n1Cc1ccc(-c2cc(N3CCc4ccccc43)ccc2-c2nn[nH]n2)cc1', 'rule not met'),
  ('CCCCC(=O)N(Cc1ccc(-c2cc(Oc3ccccc3)ccc2-c2nn[nH]n2)cc1)C1(C(=O)O)CCCCC1', 'rule not met'),
  ('CCCCC(=O)N(Cc1ccc(-c2cc(-c3ccc4ncccc4c3)ccc2-c2nn[nH]n2)cc1)C1(C(=O)O)CCCCC1', 'rule not met'),
  ('CCCCc1ncc(-c2nnc(C)o2)n1Cc1ccc(-c2cc(-c3ccccc3)ccc2-c2nn[nH]n2)cc1', 'rule not met'),
  ('CCc1nc2c(C)cc(C)nc2n1Cc1ccc(-c2cc(-c3cccc(C)c3)ccc2C(=O)O)nn1', 'rule not met'),
  ('CCCCc1nc(Cl)c(C(N)=O)n1Cc1ccc(-c2cc(-c3ccccc3)ccc2-c2noc(=O)[nH]2)cc1', 'rule met'),
  ('CCc1nc2c(C)cc(C)nc2n1Cc1ccc(-c2cc(Oc3ccccn3)ccc2-c2nnn[nH]2)cc1', 'rule not met'),
  ('CCCCc1ncc(C(=O)NCc2nccs2)n1Cc1ccc(-c2cc(-c3ccccc3)ccc2-c2nn[nH]n2)cc1', 'rule met'),
  ('CCCn1cc(-c2ccc(-c3nnn[nH]3)c(-c3ccc(Cn4c(CC)nc5c(C)cc(C)nc54)cc3)c2)nn1', 'rule met'),
  ('CCCCOC(=O)NS(=O)(=O)c1sc(-c2cccnc2OC)cc1-c1ccc(Cn2c(CC)nc3c(C)cc(C)nc32)cc1', 'rule not met'),
  ('CCCC1=NC2(CCCC2)C(=O)N1Cc1ccc(-c2cc(-c3ccccc3)ccc2-c2nn[nH]n2)cc1', 'rule met'),
  ('CCCCC(=O)N(Cc1ccc(-c2cc(-c3ccccc3)ccc2-c2nn[nH]n2)cc1)C1(C(=O)O)CCC(C)(C)CC1', 'rule not met'),
  ('CCCCC(=O)N(Cc1ccc(-c2cc(-c3ccccc3)ccc2-c2nn[nH]n2)cc1)C1(C(=O)O)CCOCC1', 'rule not met'),
  ('CCCc1nc(C(C)(C)O)c(C(=O)[O-])n1Cc1ccc(-c2cc(-c3ccccc3)ccc2-c2noc(=O)[nH]2)cc1.[Na+]', 'rule met'),
  ('CCc1nc2c(C)cc(C)nc2n1Cc1ccc(-c2cc(Oc3ccccc3F)ccc2-c2nnn[nH]2)cc1', 'rule met'),
  ('CCCCC(=O)N(Cc1ccc(-c2cc(Oc3cccnc3)ccc2-c2nn[nH]n2)cc1)[C@H](C(=O)O)C(C)C', 'rule not met');

====

- System tested: hAT1R (Homo sapiens, UniProt P30556)
- Protocol text: BRET β-arrestin2 biosensor assay, higher receptor expression (hAT1R 5 ng/well), HEK293 cells
- Type: cell-based
- Applied conditions: High AT1R Expression
Outcome measure: EC50 (nM)

INSERT INTO results (cpd_smiles, system_tested, unit_spec, val) VALUES
  ('CCCCc1ncc(C(=O)NCCC(C)C)n1Cc1ccc(-c2cc(-c3ccccc3)ccc2-c2nn[nH]n2)cc1', 'hAT1R (Homo sapiens, UniProt P30556)', 'nM', 27.4),
  ('CCCCc1ncc(C(=O)NCCO)n1Cc1ccc(-c2cc(-c3ccccc3)ccc2C(=O)O)cc1', 'hAT1R (Homo sapiens, UniProt P30556)', 'nM', 505),
  ('CCc1nc2c(C)cc(C)nc2n1Cc1ccc(-c2cc(-c3cccc(C)c3)ccc2-c2nnn[nH]2)nc1', 'hAT1R (Homo sapiens, UniProt P30556)', 'nM', 5.2),
  ('CCc1nc2c(C)cc(C)nc2n1Cc1ccc(-c2cc(-c3ccc(CO)cc3)ccc2-c2nn[nH]n2)cc1', 'hAT1R (Homo sapiens, UniProt P30556)', 'nM', 7.5);

====

- System tested: hAT1R (Homo sapiens, UniProt P30556)
- Protocol text: BRET Gq biosensor assay, agonist response, HEK293 cells
- Type: cell-based
- Applied conditions: section of the 42nd table directly before the BRET P63 section
Outcome measure: EC50 (nM)

INSERT INTO results (cpd_smiles, outcome_measure, val) VALUES
  ('CCCCc1ncc(C(=O)NCCOC(C)C)n1Cc1ccc(-c2cc(-c3ccccc3)ccc2-c2nn[nH]n2)cc1', 'EC50', 59.1),
  ('CCCCc1nc(Cl)c(C(=O)O)n1Cc1ccc(-c2cc(-c3cnn(C4CC4)c3)ccc2-c2nn[nH]n2)cc1', 'EC50', 59100),
  ('CCCCc1ncc(C(=O)NC2CCCC2)n1Cc1ccc(-c2cc(-c3ccccc3)ccc2-c2nn[nH]n2)cc1', 'EC50', 146),
  ('CCCCc1nc(Cl)c(C(=O)O)n1Cc1ccc(-c2cc(-c3cc(C)ccn3)ccc2-c2nn[nH]n2)cc1', 'EC50', 79.7),
  ('CCOc1nc2cccc(C(=O)O)c2n1Cc1ccc(-c2cc(Oc3cccc(OC(F)(F)F)c3)ccc2-c2nn[nH]n2)cc1', 'EC50', 721),
  ('CCCCC(=O)N(Cc1ccc(-c2cc(-c3ccccc3)ccc2-c2noc(=O)[nH]2)cc1)C1(C(=O)O)CCCCC1', 'EC50', 232),
  ('CCCCc1ncc(C(=O)NC2COC2)n1Cc1ccc(-c2cc(-c3ccccc3)ccc2-c2nn[nH]n2)cc1', 'EC50', 44.7);

====

- System tested: AGTR1 (Homo sapiens)
- Construct: host or cells: Pathunter CHO-K1 AGTR1 β-arrestin cell line (CHO-K1)
- Sequence (P30556 whole entry): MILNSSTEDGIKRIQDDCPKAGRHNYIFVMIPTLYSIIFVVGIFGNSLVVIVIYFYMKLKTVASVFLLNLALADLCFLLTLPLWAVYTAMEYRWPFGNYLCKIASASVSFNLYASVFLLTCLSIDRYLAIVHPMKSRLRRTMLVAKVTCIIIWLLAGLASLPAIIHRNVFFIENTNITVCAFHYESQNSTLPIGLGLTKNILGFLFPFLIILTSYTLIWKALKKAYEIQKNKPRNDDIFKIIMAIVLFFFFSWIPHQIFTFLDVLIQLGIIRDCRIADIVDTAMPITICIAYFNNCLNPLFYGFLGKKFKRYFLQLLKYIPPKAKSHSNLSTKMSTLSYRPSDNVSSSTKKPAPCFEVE
- Protocol text: DiscoveRx IP1 accumulation assay (HTRF), agonist mode, Pathunter CHO-K1 AGTR1 β-arrestin cell line
- Type: cell-based
- Applied conditions: read-out: IP-1 EC50
Overview of reported log10 of EC50 across a group of compounds:
Outcome measure: log10 of EC50 (log10 of the value in nM)

INSERT INTO measurements (cpd_smiles, val) VALUES
  ('CCc1nc2c(C)cc(C)nc2n1Cc1ccc(-c2cc(-c3ccccc3C(C)C)ccc2-c2nn[nH]n2)cc1', 4.66),
  ('CCc1nc2c(C)cc(C)nc2n1Cc1ccc(-c2cc(Oc3cccnc3)ccc2-c2noc(=O)[nH]2)cc1', 1.32),
  ('CCc1nc2c(C)cc(C)nc2n1Cc1ccc(-c2cc(-c3ccc(OC(F)(F)F)cc3)ccc2-c2nn[nH]n2)cc1', 1.16),
  ('CCc1nc2c(C)cc(C)nc2n1Cc1ccc(-c2cc(-c3cccc(C)c3)ccc2-c2nn[nH]n2)cc1', 0.78),
  ('CCCCC1=NC2(CCCC2)C(=O)N1Cc1ccc(-c2cc(N3CCCC(F)(F)C3)ccc2-c2noc(=O)[nH]2)cc1', 2.57);

====

As shown below, each of these compounds has a reported log10 of EC50 value.
- System tested: hAT1R (Homo sapiens, UniProt P30556)
- Protocol text: cell-based
- Applied conditions: agonist mode; read-out: BRET P63 EC50
Outcome measure: log10 of EC50 (log10 of the value in nM)

INSERT INTO results (cpd_smiles, outcome_measure, val) VALUES
  ('CCc1nc2c(C)cc(C)nc2n1Cc1ccc(-c2cc(-c3cccc(C)c3)ccc2-c2nn[nH]n2)cc1F', 'log10 of EC50', 0.76),
  ('CCc1nc2c(C)cc(C)nc2n1Cc1ccc(-c2cc(-c3ccccc3)ccc2-c2noc(=O)[nH]2)cc1', 'log10 of EC50', 1.32),
  ('CCc1nc2c(C)cc(C)nc2n1Cc1ccc(-c2cc(-c3cc(C)ccn3)ccc2-c2nn[nH]n2)cc1', 'log10 of EC50', 0.41),
  ('CCc1nc2c(C)cc(C)nc2n1Cc1ccc(-c2cc(-c3cn(CC4CC4)nn3)ccc2-c2nnn[nH]2)cc1', 'log10 of EC50', 1.78),
  ('Cc1ccnc(-c2ccc(-c3nn[nH]n3)c(-c3ccc(CN4C(=O)C5(CCCC5)N=C4C4CC4)cc3)c2)c1', 'log10 of EC50', 1.26),
  ('CCc1nc2c(C)cc(C)nc2n1Cc1ccc(-c2cc(-c3ccccc3)ccc2-c2nsc(=O)[nH]2)cc1', 'log10 of EC50', 1.43),
  ('CCc1nc2c(C)cc(C)nc2n1Cc1ccc(-c2cc(-c3cc(C)cc(C)n3)ccc2C(=O)O)cc1', 'log10 of EC50', 2.44),
  ('CCc1nc2c(C)cc(C)nc2n1Cc1ccc(-c2cc(-c3ccc(F)cn3)ccc2-c2nn[nH]n2)cc1', 'log10 of EC50', 1.24),
  ('CC1=NC2(CCCC2)C(=O)N1Cc1ccc(-c2cc(-c3cc(C)ccn3)ccc2-c2nn[nH]n2)cc1', 'log10 of EC50', 1.35);
